target: GST fusion human ERK2 protein (Homo sapiens, UniProt P28482); construct: purchased Carna Biosciences, Inc; host or cells: E. coli expression system; assay: ERK2 enzyme assay (1); type: biochemical; details: 2.5 nmol/L ERK2, ATP 43.1 μmol/L; read-out: ERK2 enzyme inhibitory activity (1)
Sequence (P28482 whole entry, the tested form may be a part): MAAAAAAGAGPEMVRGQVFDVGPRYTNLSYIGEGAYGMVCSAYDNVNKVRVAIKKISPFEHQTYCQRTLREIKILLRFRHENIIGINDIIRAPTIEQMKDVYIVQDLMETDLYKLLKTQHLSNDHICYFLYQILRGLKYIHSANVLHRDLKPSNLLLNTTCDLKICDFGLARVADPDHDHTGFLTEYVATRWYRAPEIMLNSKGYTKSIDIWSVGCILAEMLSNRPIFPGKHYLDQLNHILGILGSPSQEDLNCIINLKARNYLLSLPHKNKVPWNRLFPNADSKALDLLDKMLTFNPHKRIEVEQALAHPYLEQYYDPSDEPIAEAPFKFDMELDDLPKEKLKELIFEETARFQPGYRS
measured.metric: IC50

For orientation, consider the following solved cases.
molecule: c1ccc2ncc(Nc3cnc4ccc(Nc5nnc(C6CCCC6)s5)nc4c3)cc2c1 [Example 0094]
IC50: 10000 to 50000 nM

molecule: Cn1cc(-c2cnc3ccc(Nc4nnc(C(C)(C)C)s4)nc3c2)cn1 [Example 0162]
IC50: < 1000 nM

Note to self: IC50 recorded for Cn1cc(-c2cnc3ccc(Nc4nnc(NS(C)(=O)=O)s4)nc3c2)cn1 [Example 0187] was < 1000 nM

Note to self: IC50 recorded for c1cc(Nc2cnc3ccc(Nc4nnc(C5CCCC5)s4)nc3c2)cnn1 [Example 0088] was < 1000 nM

Note to self: IC50 recorded for CCCc1nn(C)cc1-c1cnc2ccc(Nc3nnc(C(C)C)s3)nc2c1 [Example 0122] was < 1000 nM
